Data provenance is paper PMC7878891.

- assayed-target: PL^proSARS (recombinant SARS-CoV-1 PL^pro) (Severe acute respiratory syndrome coronavirus)
- procedure-summary: biochemical
- Type: biochemical
- test-settings: IC50 PL^proSARS no incubation
pIC50: −log10 of the molar value.
measurement-label: pIC50

## Task Which value of pIC50 has been reported for O=c1c2ccccc2[se]n1-c1ccccc1 [ebselen, 2-Phenyl-1,2-benzisoselenazol-3(2H)-one] in the records?
## Result < 3.70

----------
- assayed-target: PL^proCoV2 (recombinant SARS-CoV-2 PL^pro) (Severe acute respiratory syndrome coronavirus 2)
- test-settings: read-out: IC50 toward PL^proCoV2
The reader will find reported IC50 values listed item by item below.
Numbers only here, please. The scale is nM.

Here's what some known entries look like.
molecular-string | IC50 (nM)
COc1ccccc1-n1[se]c2ccccc2c1=O | 256
O=c1c2ccccc2[se]n1-c1ccccc1O | 236
COc1ccccc1NC(=O)c1ccccc1[Se][Se]c1ccccc1C(=O)Nc1ccccc1OC | 263

Next molecule, please.
## Task Would you mind telling me what IC50 value was observed for O=C(Nc1ccccc1O)c1ccccc1[Se][Se]c1ccccc1C(=O)Nc1ccccc1O ?
## Result 339
